These measurements were taken from paper PMC3479139.

molecular target: double-stranded 17-mer DNA fragment; experiment: ThO (Thiazole Orange) DNA displacement assay; format: binding; conditions: read-out: ThO-DNA binding IC50;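 further: miniaturized displacement of the intercalating dye from unlabeled duplex DNA, used to flag nonspecific DNA binders, chiefly intercalators, groove binders may be missed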
Property Label: IC50

Lookup: For the molecule c1ccc2c(NCCc3c[nH]c4ccccc34)c3ccccc3nc2c1 , what IC50 is on record?
Found: 32.4 µM

Lookup: For the molecule CC(C)C(=O)NC(C)C(c1cccs1)N1CCN(c2ccccc2)CC1 (centres unmarked) , what IC50 is on record?
Found: > 57 µM

Lookup: For the molecule NS(=O)(=O)c1ccc(NC(=O)CSc2nnc(NC3CC3)s2)cc1 , what IC50 is on record?
Found: > 57 µM

Lookup: For the molecule CCc1cc(CNC(=O)c2ccc(OC3CCN(CCc4ccccc4)CC3)cc2)on1 , what IC50 is on record?
Found: > 57 µM

Lookup: For the molecule O=C(NN1C(=O)/C(=C/C=C/c2ccco2)SC1=S)c1ccncc1 , what IC50 is on record?
Found: > 57 µM
